Reported Ki for target or system human MCH-1 receptor (Homo sapiens (Human), UniProt Q99705), by entry.
Structures can show the parent of a compound that is named as a salt.
measured attribute: Ki (nM)

Example results:
query: Recall and state the measured Ki for Cn1c2c(c3ccc(-n4ccc(OCc5ccc(F)cn5)cc4=O)cc31)C(=O)NCCC2 .
result: 149

query: Recall and state the measured Ki for CC(C)N1CCc2[nH]c3cc(-n4ccc(OCc5ccc(F)cn5)cc4=O)ccc3c2CC1 [Example 42, hydrochloride] .
result: 17.8

query: Recall and state the measured Ki for Cn1c2c(c3ccc(-n4ccc(OCc5ccccc5)cc4=O)cc31)CCNCC2 [Example 43, hydrochloride] .
result: 8.9

a = Cn1c2c(c3ccc(-n4ccc(OCc5ccc(Cl)cn5)cc4=O)nc31)CCNCC2 [Example 85, hydrochloride]
b = O=c1cc(-c2ccc(C(F)(F)F)nn2)ccn1-c1ccc2c3c([nH]c2c1)CCNCC3 [Example 8, dihydrochloride]
c = CCN1CCc2c(n(C)c3cc(N4CCN(CCc5ccc(F)cc5)CC4=O)ccc23)CC1 [Example 99, dihydrochloride]
d = Cn1c2c(c3ccc(-n4ccc(OCc5ccc(F)cc5)cc4=O)cc31)CCNCC2 [Example 57, hydrochloride]
query: Let's sort these by Ki, smallest first. Go ahead? // respond by listing labels in the order requested
result: d, a, c, b
(d: 7.3 nM, a: 11 nM, c: 17 nM, b: 148 nM)
